- System: DU-145 cells
- EXPERIMENTAL_DETAILS: Cellular proliferation assay (MTS) in DU-145 cells
- Assay type: cell-based
- RECORDED_CONDITIONS: Homo sapiens, 72 hours of incubation, read-out: IC50 values for selected compounds in DU-145 cells
PROPERTY_MEASURED: pIC50
Here pIC50 is given on a logarithmic scale as minus log10 of the concentration in mol/L.

INPUT: Looking for the measured pIC50 of C#CCNC(=O)c1ccc2c(Cc3c[nH]c4ccccc34)c(C)[nH]c2c1 , can you help?
OUTPUT: 5.26

INPUT: Looking for the measured pIC50 of C#CCNC(=O)c1ccc2c(Cc3c[nH]c4ccccc34)c[nH]c2c1 , can you help?
OUTPUT: 5.09

INPUT: Looking for the measured pIC50 of C#Cc1ccc2c(C=O)cn(-c3ccccc3)c2c1 , can you help?
OUTPUT: 4.87

INPUT: Looking for the measured pIC50 of C#CCN(CCO)C(=O)c1ccc2c(Cc3c[nH]c4ccccc34)c[nH]c2c1 , can you help?
OUTPUT: 5.30

INPUT: Looking for the measured pIC50 of Fc1cccc2[nH]cc(Cc3c[nH]c4cccc(F)c34)c12 , can you help?
OUTPUT: 4.92

INPUT: Looking for the measured pIC50 of O=C(O)c1ccc2c(Cc3c[nH]c4ccccc34)c[nH]c2c1 , can you help?
OUTPUT: 7.10
